Experimental Protocol: NCI Yeast Anticancer Drug Screen. Data for the rad50 strain (AID 155);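 also: 0% = growth of vehicle-only cultures of the same strain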
Test Settings: S. cerevisiae rad50 strain growth inhibition; at 50.0 µM; stronger effect = higher value
The panel holds about 79,000 compounds, 15% with a hit somewhere; the sample as a whole holds those more often.
Please mark true (1) if the recorded growth inhibition is equal to or greater than 20%, and false (0) if it falls below.

[Q] Identify whether the reported growth inhibition of the following compound is 20% or greater: CCC1(CCC(C)C)C(=O)NC(=NCCCC(N)C(=O)O)NC1=O (centres undefined)
[A] false (0)

[Q] Identify whether the reported growth inhibition of the following compound is 20% or greater: O.O=[N+]([O-])O.[NH2-].[NH2-].[Pt+2]
[A] true (1)

[Q] Identify whether the reported growth inhibition of the following compound is 20% or greater: Oc1ccc(Cl)cc1Br
[A] false (0)

[Q] Identify whether the reported growth inhibition of the following compound is 20% or greater: C[Si](C)(C)CS(=O)[O-].[C-]#[O+].[C-]#[O+].[Fe+6].[c-]1[c-][c-][cH-][c-]1
[A] false (0)

[Q] Identify whether the reported growth inhibition of the following compound is 20% or greater: COc1ccc2c(c1OC)C(=O)O[C@@H]2[C@H]1c2cc3c(cc2CCN1C)OCO3
[A] false (0)

[Q] Identify whether the reported growth inhibition of the following compound is 20% or greater: Cn1cnnc1N
[A] false (0)

[Q] Identify whether the reported growth inhibition of the following compound is 20% or greater: NNC(=S)N/N=C(\C(=O)Nc1cccc(O)c1)C1C(=O)NC(=S)NC1=O
[A] false (0)

[Q] Identify whether the reported growth inhibition of the following compound is 20% or greater: O=C1CCCN1CC#CCN1CCCC1
[A] false (0)

[Q] Identify whether the reported growth inhibition of the following compound is 20% or greater: NNc1ccc([N+](=O)[O-])cc1
[A] true (1)

[Q] Identify whether the reported growth inhibition of the following compound is 20% or greater: Cc1cc(CCl)c(O)c(CCl)c1
[A] false (0)

[Q] Identify whether the reported growth inhibition of the following compound is 20% or greater: O=P(Nc1ccccc1)(Oc1ccccc1)N(CCCl)CCCl (centres undefined)
[A] true (1)

[Q] Identify whether the reported growth inhibition of the following compound is 20% or greater: CC1(C)N=C(N)N=C(N)N1c1cccc(CCCCc2ccc(S(=O)(=O)F)c(Cl)c2)c1
[A] true (1)

[Q] Identify whether the reported growth inhibition of the following compound is 20% or greater: CCOP(=O)(OCC)OP(=O)(OCC)OCC
[A] false (0)

[Q] Identify whether the reported growth inhibition of the following compound is 20% or greater: O=[N+]([O-])c1ccc(SSC(Cl)(Cl)Cl)cc1
[A] true (1)

[Q] Identify whether the reported growth inhibition of the following compound is 20% or greater: O=C1C(NCC(O)CO)=C(N2CC2)C(=O)C(NCC(O)CO)=C1N1CC1 (centres undefined)
[A] false (0)

[Q] Identify whether the reported growth inhibition of the following compound is 20% or greater: CCCCCCCCCCCCCCCC(=O)[O][Hg][c]1ccccc1
[A] true (1)

[Q] Identify whether the reported growth inhibition of the following compound is 20% or greater: O=C(CCCN1CCC2(CC1)C(=O)NCN2c1ccccc1)c1ccccc1
[A] false (0)

[Q] Identify whether the reported growth inhibition of the following compound is 20% or greater: CC(C)CCC1C(=O)NC(=O)NC1=O
[A] false (0)

[Q] Identify whether the reported growth inhibition of the following compound is 20% or greater: CCOC(=O)N[N+]12CCN(CC1)CC2
[A] false (0)

[Q] Identify whether the reported growth inhibition of the following compound is 20% or greater: CCCCCCCCCCCCCCCCP(=O)(O)OP(=O)(O)OCC1OC(n2cnc3c(N)ncnc32)C(O)C1O (centres undefined)
[A] true (1)

[Q] Identify whether the reported growth inhibition of the following compound is 20% or greater: NCc1c[nH]c2ccccc12
[A] false (0)

[Q] Identify whether the reported growth inhibition of the following compound is 20% or greater: CC(C)(C)N.[O]=[Cr](=[O])([OH])[OH]
[A] true (1)

[Q] Identify whether the reported growth inhibition of the following compound is 20% or greater: CC(C(=O)c1ccccc1)N(C)C (centres undefined)
[A] false (0)

[Q] Identify whether the reported growth inhibition of the following compound is 20% or greater: O=C(CP(=O)(O)O)c1cccs1
[A] false (0)

[Q] Identify whether the reported growth inhibition of the following compound is 20% or greater: C1C2CC3C1C1CN3C21 (centres undefined)
[A] false (0)

[Q] Identify whether the reported growth inhibition of the following compound is 20% or greater: COC(=S)NP(=O)(NC(=S)OC)NC(=S)OC
[A] false (0)

[Q] Identify whether the reported growth inhibition of the following compound is 20% or greater: O=C1CC=C2C3CC4N(CCC45c4ccccc4N1C25)C/C3=C\CO (centres undefined)
[A] true (1)

[Q] Identify whether the reported growth inhibition of the following compound is 20% or greater: O=c1c2ccc(Cl)cc2[nH]c(=S)n1-c1ccc(Cl)cc1
[A] false (0)

[Q] Identify whether the reported growth inhibition of the following compound is 20% or greater: C=CCN1CN(c2ccccc2)C2(CCN(CCCC3(c4ccc(F)cc4)OCCO3)CC2)C1=O
[A] false (0)

[Q] Identify whether the reported growth inhibition of the following compound is 20% or greater: O=[As](O)(O[As](=O)(O)c1ccccc1)c1ccccc1
[A] true (1)

[Q] Identify whether the reported growth inhibition of the following compound is 20% or greater: CC1(C)CC(N2CCCCC2)=CC(=[N+]2CCCCC2)C1
[A] false (0)

[Q] Identify whether the reported growth inhibition of the following compound is 20% or greater: COC(=O)C1c2cc(OC)c(OC)cc2C(=O)N2CCc3cc4c(cc3C12)OCO4 (centres undefined)
[A] false (0)

[Q] Identify whether the reported growth inhibition of the following compound is 20% or greater: O=C1Cc2ccccc2C(=O)N1CCN1CCOCC1
[A] false (0)

[Q] Identify whether the reported growth inhibition of the following compound is 20% or greater: COc1cc(O)c2c(O)c3c(=O)cc(C)oc3cc2c1
[A] false (0)

[Q] Identify whether the reported growth inhibition of the following compound is 20% or greater: C=C(CC(=O)O)C(=O)O
[A] false (0)

[Q] Identify whether the reported growth inhibition of the following compound is 20% or greater: NC(CSSCC(N)C(=O)c1ccccc1)C(=O)c1ccccc1 (centres undefined)
[A] true (1)

[Q] Identify whether the reported growth inhibition of the following compound is 20% or greater: O=C(C[n+]1ccccc1)C1CCCC2CC3CCCCC3CC21 (centres undefined)
[A] false (0)

[Q] Identify whether the reported growth inhibition of the following compound is 20% or greater: CC(=N/O)/C(C)=N\O
[A] true (1)

[Q] Identify whether the reported growth inhibition of the following compound is 20% or greater: CCOC(=O)C(N)C[S][Sn]([CH3])([CH3])[Cl] (centres undefined)
[A] false (0)

----------
Experimental Protocol: NCI Yeast Anticancer Drug Screen. Data for the bub3 strain (AID 167)
Test Settings: S. cerevisiae bub3 mutant strain, at 50.0 µM, stronger effect = higher value
The panel holds about 79,000 compounds, 15% with a hit somewhere; the sample as a whole holds those more often.
Exercise: state measured growth inhibition for each of the compounds provided.
The reply should contain only the number, in %.

[Q] Request the reported growth inhibition associated with CC1(C)OCC(CO)(Nc2nc(N3CC3)nc(N3CC3)n2)CO1
[A] 5.6

[Q] Request the reported growth inhibition associated with CN1CN(c2ccccc2)C2(CCN(CCC3COc4ccccc4O3)CC2)C1=O (centres undefined)
[A] -4.45

[Q] Request the reported growth inhibition associated with COCC(=O)CP(=O)(OC)OC
[A] -14.7

[Q] Request the reported growth inhibition associated with O=NNc1cnc2ccccc2n1
[A] -38.2

----------
Experimental Protocol: NCI Yeast Anticancer Drug Screen. Data for the cln2 rad14 strain (AID 165);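 also: 0% = growth equal to vehicle treated cultures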
Test Settings: S. cerevisiae cln2 rad14 strain, at 50.0 µM, stronger effect = higher value
This is part of a sample that, as a whole, favours compounds with a hit. Of some 79,000 tested, about 15% had one in any assay.
Outcome Measure: growth inhibition (%)
The reply should contain only the number, in %.

[Q] Request the reported growth inhibition associated with ClCCCCBr
[A] 13.5

[Q] Request the reported growth inhibition associated with NC(CCC(=O)NC(CSc1ccc([N+](=O)[O-])cc1[N+](=O)[O-])C(=O)NCC(=O)O)C(=O)O (stereo not drawn)
[A] 8.7

[Q] Request the reported growth inhibition associated with [C-]#[O+].[C-]#[O+].[C-]#[O+].[C-]#[O+].[Cr].c1ccc(P(CCP(CCP(c2ccccc2)c2ccccc2)c2ccccc2)CCP(c2ccccc2)c2ccccc2)cc1 (stereo not drawn)
[A] 16.8
